target: 5HT6-human recombinant receptor (Homo sapiens, UniProt P50406); test: Binding to serotonin receptor 5HT6 ([3H]-LSD displacement, HEK-293 cell membranes)
Sequence (P50406 whole entry): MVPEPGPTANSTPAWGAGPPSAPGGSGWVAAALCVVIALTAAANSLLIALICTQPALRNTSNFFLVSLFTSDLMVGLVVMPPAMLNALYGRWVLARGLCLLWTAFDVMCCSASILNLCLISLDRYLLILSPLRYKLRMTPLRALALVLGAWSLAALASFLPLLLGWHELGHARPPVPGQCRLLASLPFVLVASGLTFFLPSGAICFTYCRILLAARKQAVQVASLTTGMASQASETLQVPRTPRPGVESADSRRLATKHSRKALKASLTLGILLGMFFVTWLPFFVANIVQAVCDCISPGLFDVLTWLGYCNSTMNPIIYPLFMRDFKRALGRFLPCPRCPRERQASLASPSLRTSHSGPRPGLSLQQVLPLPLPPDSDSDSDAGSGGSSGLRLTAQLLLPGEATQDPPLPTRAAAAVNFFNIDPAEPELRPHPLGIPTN
Where a name gives a salt, the structure may show the parent alone.
Let's look at some compounds and their measured Ki.

Compound: Cc1c(S(=O)(=O)Nc2ccc3[nH]cc(CCN(C)C)c3c2)sc2ccc(Cl)cc12
Ki [pM]: 130
--
Compound: CCN(CC)CCc1c[nH]c2ccc(NS(=O)(=O)c3ccc(Cl)s3)cc12
Ki [pM]: 8700
--
Compound: CN(C)CCc1c[nH]c2ccc(NS(=O)(=O)c3cccc4ccccc34)cc12
Ki [pM]: 760
--
Compound: Cc1c(S(=O)(=O)Nc2ccc3[nH]cc(C4CCN(C)CC4)c3c2)sc2ccc(Cl)cc12 [Example 11, hydrochloride]
Ki [pM]: 980
--
Compound: CCN(CC)CCc1c[nH]c2ccc(NS(=O)(=O)c3sc4ccc(Cl)cc4c3C)cc12
Ki [pM]: 280

----------
Structures can show the parent of a compound that is named as a salt.
The entries below come with measured melting point values attached.
Readout kind: melting point

Compound: CN1CCC(c2c[nH]c3ccc(NS(=O)(=O)c4cccc5ccccc45)cc23)CC1 (as salt: HCl)
Reported measurement: 212 °C (dec.)

Compound: Cc1c(S(=O)(=O)Nc2ccc3[nH]cc(CCN(C)C)c3c2)sc2ccc(Cl)cc12
Reported measurement: 226 to 227 °C

Compound: CN1CCC(c2c[nH]c3ccc(NS(=O)(=O)c4ccc(-c5ccccc5)cc4)cc23)CC1
Reported measurement: 247 to 248 °C

Compound: CCN(CC)CCc1c[nH]c2ccc(NS(=O)(=O)c3ccc4ccccc4c3)cc12
Reported measurement: 172 to 173 °C

Compound: CCN(CC)CCc1c[nH]c2ccc(NS(=O)(=O)c3ccc(-c4ccccc4)cc3)cc12
Reported measurement: 161 to 163 °C

Compound: CCN(CC)CCc1c[nH]c2ccc(NS(=O)(=O)c3ccc(Cl)s3)cc12
Reported measurement: 180 to 181 °C

Compound: CCN(CC)CCc1c[nH]c2ccc(NS(=O)(=O)c3cc(Cl)cc(Cl)c3)cc12
Reported measurement: 168 to 170 °C

Compound: CCN(CC)CCc1c[nH]c2ccc(NS(=O)(=O)c3sc4ccc(Cl)cc4c3C)cc12
Reported measurement: 170 to 173 °C

Compound: CN(C)CCc1c[nH]c2ccc(NS(=O)(=O)c3cccc4ccccc34)cc12
Reported measurement: 203 to 205 °C

Compound: CN1CCC(c2c[nH]c3ccc(NS(=O)(=O)c4ccc(Cl)s4)cc23)CC1
Reported measurement: 284 °C (dec.)

Compound: CCN(CC)CCc1c[nH]c2ccc(NS(=O)(=O)c3cccc4ccccc34)cc12 (as salt: HCl)
Reported measurement: 255 to 257 °C

Compound: CN1CCC(c2c[nH]c3ccc(NS(=O)(=O)c4cccc5cccnc45)cc23)CC1
Reported measurement: 280 °C (dec.)

----------
target: 5HT6-human recombinant receptor (Homo sapiens); construct: purchased Receptor Biology; host or cells: HEK-293 cell membranes; experiment: Binding to serotonin receptor 5HT6 ([3H]-LSD displacement, HEK-293 cell membranes); conditions: read-out: % Inhibition 10^−6 M
Counter-ions that a name gives are not always drawn.
Readout kind: inhibition at 1 µM (%)

Compound: CN1CCC(c2c[nH]c3ccc(NS(=O)(=O)c4cccc5ccccc45)cc23)CC1 [Example 13, hydrochloride]
Reported measurement: 98.3
--
Compound: CN(C)CCc1c[nH]c2ccc(NS(=O)(=O)c3c(Cl)nc4sccn34)cc12
Reported measurement: 96.8
--
Compound: CCN(CC)CCc1c[nH]c2ccc(NS(=O)(=O)c3cc(Cl)cc(Cl)c3)cc12
Reported measurement: 96.2
--
Compound: CCN(CC)CCc1c[nH]c2ccc(NS(=O)(=O)c3sc4ccc(Cl)cc4c3C)cc12
Reported measurement: 98.1
--
Compound: Cc1c(S(=O)(=O)Nc2ccc3[nH]cc(CCN(C)C)c3c2)sc2ccc(Cl)cc12
Reported measurement: 103
--
Compound: CCN(CC)CCc1c[nH]c2ccc(NS(=O)(=O)c3ccc(-c4ccccc4)cc3)cc12
Reported measurement: 101
--
Compound: CCN(CC)CCc1c[nH]c2ccc(NS(=O)(=O)c3ccc(Cl)s3)cc12
Reported measurement: 97.6
--
Compound: CCN(CC)CCc1c[nH]c2ccc(NS(=O)(=O)c3ccc4ccccc4c3)cc12
Reported measurement: 102
--
Compound: Cc1c(S(=O)(=O)Nc2ccc3[nH]cc(C4CCN(C)CC4)c3c2)sc2ccc(Cl)cc12 [Example 11, hydrochloride]
Reported measurement: 101
--
Compound: CCN(CC)CCc1c[nH]c2ccc(NS(=O)(=O)c3cccc4ccccc34)cc12
Reported measurement: 96.6
--
Compound: CN(C)CCc1c[nH]c2ccc(NS(=O)(=O)c3cccc4ccccc34)cc12
Reported measurement: 94.5
